- Tested Target: purified PfENR (Plasmodium falciparum, UniProt Q9BH77)
- Sequence (Q9BH77 22-432): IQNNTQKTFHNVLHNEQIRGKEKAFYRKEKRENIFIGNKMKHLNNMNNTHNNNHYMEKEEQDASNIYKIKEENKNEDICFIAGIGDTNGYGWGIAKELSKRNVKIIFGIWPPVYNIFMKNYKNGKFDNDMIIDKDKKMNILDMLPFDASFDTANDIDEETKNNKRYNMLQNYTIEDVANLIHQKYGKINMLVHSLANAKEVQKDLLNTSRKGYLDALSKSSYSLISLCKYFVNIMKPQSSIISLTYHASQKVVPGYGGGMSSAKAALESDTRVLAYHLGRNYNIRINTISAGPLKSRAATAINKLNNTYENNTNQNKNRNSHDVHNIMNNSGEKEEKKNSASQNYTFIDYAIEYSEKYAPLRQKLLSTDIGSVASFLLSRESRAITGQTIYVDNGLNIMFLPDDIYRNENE
- Assay Remarks: PfENR inhibition kinetics, cofactor potency and progress curve analysis
- Assay type: biochemical
Quantity Name: pKi
Field pKi (float): negative decimal logarithm of the concentration in molar.

stdin: Consider the compound shown here: O=C(NCc1ccc(C(F)(F)F)cc1)c1sc2ccccc2c1Br [Compound 7] What is its recorded pKi?
stdout: 7.06

Where do these numbers come from? They come from patent US20120016014A1.
